# System: Enterococcus faecium efm040
# testProtocol: MIC, broth microdilution (NCCLS), E. faecium efm040
# Assay type: cell-based
# conditionInfo: E. faecium efm040, clinical isolate U.S.A., ampicillin resistant, 35° C., 20 h, read-out: Minimal Inhibitory Concentration (MIC)
What MIC was measured for each of the following?

# count of solved cases: 3
>  <compound>
C[C@@H](O)[C@H]1C(=O)N2C(C(=O)O)=C(SCCN=CN)C[C@H]12

>  <measuredOn>
Enterococcus faecium efm040

>  <MIC>
> 128 µg/mL

$$$$
>  <compound>
CN(C(=O)C[C@@H](N)CCCNC(=N)N)[C@H]1CNC(NC(N)=O)=NC1=O [TAN-1057A]

>  <measuredOn>
Enterococcus faecium efm040

>  <MIC>
128 µg/mL

$$$$
>  <compound>
COC(=O)NC1=NC(=O)C(N(C)C(=O)C[C@@H](N)CCCNC(=N)N)CN1 (stereo partly shown) [Compound 73c]

>  <measuredOn>
Enterococcus faecium efm040

>  <MIC>
> 256 µg/mL

$$$$

MIC reading for CC(=O)NC1=NC(=O)C(N(C)C(=O)C[C@@H](N)CCCNC(=N)N)CN1 (stereo partly shown) [Compound 73a] : 256 µg/mL

====

# Tested on: Staphylococcus aureus 76
# testProtocol: MIC, broth microdilution (NCCLS), S. aureus 76
# Assay type: cell-based
# conditionInfo: Staphylococcus aureus; S. aureus 76, methicillin resistant, β-lactamase positive; 35° C., 20 h; read-out: Minimal Inhibitory Concentration (MIC)
measurementKind: MIC (µg/mL)
One number for each entry, in µg/mL.

A selection of reference data follows.
>  <compound>
C[C@@H](O)[C@H]1C(=O)N2C(C(=O)O)=C(SCCN=CN)C[C@H]12

>  <measuredOn>
Staphylococcus aureus 76

>  <unitString>
µg/mL

>  <MIC>
8

$$$$
>  <compound>
CC(=O)NC1=NC(=O)C(N(C)C(=O)C[C@@H](N)CCCNC(=N)N)CN1 (stereo partly shown) [Compound 73a]

>  <measuredOn>
Staphylococcus aureus 76

>  <unitString>
µg/mL

>  <MIC>
16

$$$$
>  <compound>
CN(C(=O)C[C@@H](N)CCCNC(=N)N)[C@H]1CNC(NC(N)=O)=NC1=O [TAN-1057A]

>  <measuredOn>
Staphylococcus aureus 76

>  <unitString>
µg/mL

>  <MIC>
16

$$$$

Now, please, on to the next compound.
The compound identified as COC(=O)NC1=NC(=O)C(N(C)C(=O)C[C@@H](N)CCCNC(=N)N)CN1 (stereo partly shown) [Compound 73c] registered its MIC at 64

====

# Test system: Enterococcus faecium BM4147
# testProtocol: MIC, broth microdilution (NCCLS), E. faecium BM4147
# Assay type: cell-based
# conditionInfo: E. faecium BM4147, vancomycin resistant, vanA, 35° C., 20 h, read-out: Minimal Inhibitory Concentration (MIC)
Please go through the items and note down their MIC.
Answers are plain numbers, in µg/mL.

>  <molecule>
COC(=O)NC1=NC(=O)C(N(C)C(=O)C[C@@H](N)CCCNC(=N)N)CN1 (stereo partly shown) [Compound 73c]

>  <measuredOn>
Enterococcus faecium BM4147

>  <MIC, µg/mL>
64

$$$$
>  <molecule>
CN(C(=O)C[C@@H](N)CCCNC(=N)N)[C@H]1CNC(NC(N)=O)=NC1=O [TAN-1057A]

>  <measuredOn>
Enterococcus faecium BM4147

>  <MIC, µg/mL>
32

$$$$

Dear reader, for each entry below, please note its MIC.
1. CC(=O)NC1=NC(=O)C(N(C)C(=O)C[C@@H](N)CCCNC(=N)N)CN1 (stereo partly shown) [Compound 73a]
2. C[C@@H](O)[C@H]1C(=O)N2C(C(=O)O)=C(SCCN=CN)C[C@H]12

Reply |
1. 128
2. 8

====

# Tested on: Staphylococcus aureus ATCC 29213
# testProtocol: MIC, broth microdilution (NCCLS), S. aureus ATCC 29213
# Type: cell-based
# conditionInfo: ATCC29213, S. aureus ATCC 29213, reference strain, 35° C., 20 h, read-out: Minimal Inhibitory Concentration (MIC)
Please go through the items and note down their MIC.
Give bare numbers, in µg/mL.

>  <compound>
CN(C(=O)C[C@@H](N)CCCNC(=N)N)[C@H]1CNC(NC(N)=O)=NC1=O [TAN-1057A]

>  <measuredOn>
Staphylococcus aureus ATCC 29213

>  <MIC (µg/mL)>
16

$$$$
>  <compound>
COC(=O)NC1=NC(=O)C(N(C)C(=O)C[C@@H](N)CCCNC(=N)N)CN1 (stereo partly shown) [Compound 73c]

>  <measuredOn>
Staphylococcus aureus ATCC 29213

>  <MIC (µg/mL)>
64

$$$$

Consider now this further compound.
MIC reported for this compound CC(=O)NC1=NC(=O)C(N(C)C(=O)C[C@@H](N)CCCNC(=N)N)CN1 (stereo partly shown) [Compound 73a] : 16

====

# Test system: Staphylococcus aureus PC1
# testProtocol: MIC, broth microdilution (NCCLS), S. aureus PC1
# Type: cell-based
# conditionInfo: S. aureus PC1, Type A βlactamase hyperproducer, 35° C., 20 h, read-out: Minimal Inhibitory Concentration (MIC)
Provide the recorded MIC for the entries that follow.
Answers are plain numbers, in µg/mL.

>  <compound>
COC(=O)NC1=NC(=O)C(N(C)C(=O)C[C@@H](N)CCCNC(=N)N)CN1 (stereo partly shown) [Compound 73c]

>  <MIC, µg/mL>
32

$$$$
>  <compound>
CN(C(=O)C[C@@H](N)CCCNC(=N)N)[C@H]1CNC(NC(N)=O)=NC1=O [TAN-1057A]

>  <MIC, µg/mL>
8

$$$$

// sample CC(=O)NC1=NC(=O)C(N(C)C(=O)C[C@@H](N)CCCNC(=N)N)CN1 (stereo partly shown) [Compound 73a] , its MIC was 8
